Target: rat EP1 receptor (Rattus norvegicus, UniProt P70597)
Construct: expressed in transfected cells
Sequence (P70597 whole entry): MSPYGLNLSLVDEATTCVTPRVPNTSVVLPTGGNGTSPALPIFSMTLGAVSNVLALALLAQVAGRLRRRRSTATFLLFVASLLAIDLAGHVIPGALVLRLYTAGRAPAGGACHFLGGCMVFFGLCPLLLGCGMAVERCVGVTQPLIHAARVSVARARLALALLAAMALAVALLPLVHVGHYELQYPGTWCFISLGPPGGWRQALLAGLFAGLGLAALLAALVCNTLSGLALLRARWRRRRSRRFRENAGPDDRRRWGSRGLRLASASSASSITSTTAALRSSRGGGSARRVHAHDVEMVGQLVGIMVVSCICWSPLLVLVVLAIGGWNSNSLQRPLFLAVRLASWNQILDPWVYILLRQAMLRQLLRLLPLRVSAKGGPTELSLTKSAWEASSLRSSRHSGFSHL
Test: Rat EP1 receptor agonistic/antagonistic action (intracellular Ca2+, FLIPR, HEK293 stable expression cells)
Assay type: cell-based
Details: inhibition of intracellular Ca2+ increasing action by PGE2
Counter-ions that a name gives are not always drawn.
assay_readout: IC50 (nM)
One number for each entry, in nM.

>  <compound>
CN(Cc1c(Cl)cc(Cl)c(=O)n1CCc1ccc(C(=O)O)cc1)c1cccc(Cl)c1

>  <experimental_system>
rat EP1 receptor (Rattus norvegicus, UniProt P70597)

>  <IC50, nM>
2700

$$$$
>  <compound>
CCC[C@H]1CCCN1Cc1c(Cl)cc(Cl)c(=O)n1CCc1ccc(C(=O)O)cc1 [Example 17, trifluoroacetate]

>  <experimental_system>
rat EP1 receptor (Rattus norvegicus, UniProt P70597)

>  <IC50, nM>
2100

$$$$

Turning now to a further record.
Can you share its IC50? I mean this compound: O=C(O)c1ccc(CCn2c(CN3CCc4ccc(F)cc43)c(Cl)cc(Cl)c2=O)cc1
1000

====

Target: rat EP4 receptor (Rattus norvegicus, UniProt P43114)
Sequence (P43114 whole entry): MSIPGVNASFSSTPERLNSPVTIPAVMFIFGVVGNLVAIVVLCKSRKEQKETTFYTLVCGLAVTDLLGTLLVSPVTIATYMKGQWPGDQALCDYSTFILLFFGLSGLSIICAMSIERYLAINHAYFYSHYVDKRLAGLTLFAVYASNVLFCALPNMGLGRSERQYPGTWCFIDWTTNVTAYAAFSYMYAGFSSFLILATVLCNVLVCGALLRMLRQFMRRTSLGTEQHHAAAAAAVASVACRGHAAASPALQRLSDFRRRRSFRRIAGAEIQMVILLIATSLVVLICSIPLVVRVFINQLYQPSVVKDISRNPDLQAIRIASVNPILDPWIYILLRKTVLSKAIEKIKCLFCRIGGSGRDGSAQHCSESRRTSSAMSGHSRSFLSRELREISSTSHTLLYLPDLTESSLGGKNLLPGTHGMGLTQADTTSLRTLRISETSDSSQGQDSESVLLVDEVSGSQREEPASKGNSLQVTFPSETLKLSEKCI
Experiment: Evaluation test on EP4 receptor affinity in rat ([3H]PGE2 receptor binding test, membrane fraction)
Conditions: [3H]PGE2 0.3 nM, membrane fraction of rat EP4 expressing HEK293 cells
Method: A rat EP4 receptor cDNA was subcloned into an expression vector (pcDNA3.1-V5-His-topo, manufactured by Invitrogen Corporation) to prepare a rat EP4 expression vector. HEK293 cells were cultured in a collagen type I-treated 15 cm dish (manufactured by Asahi Techno Glass Co. Ltd.) to a confluence of 70%. […] According to the test method as described above, the rat EP4 receptor affinity (Ki) of the compound of the formula (I) was measured. […]
Give Ki for every item shown.
Give bare numbers, in nM.

Below, each entry is followed by its recorded Ki result.
>  <compound>
CCc1cccc2c1N(Cc1c(Cl)cc(Cl)c(=O)n1CCc1ccc(C(=O)O)cc1)CC2 [Example 13]

>  <experimental_system>
rat EP4 receptor (Rattus norvegicus, UniProt P43114)

>  <measurement_unit>
nM

>  <observed>
24

$$$$
>  <compound>
CN(Cc1c(Cl)cc(Cl)c(=O)n1CCc1ccc(C(=O)O)cc1)c1cccc(OC(F)(F)F)c1 [Ex 19]

>  <experimental_system>
rat EP4 receptor (Rattus norvegicus, UniProt P43114)

>  <measurement_unit>
nM

>  <observed>
5.4

$$$$
>  <compound>
Cc1cc(C2CC2)c(CN2CCC[C@@H]2CC(C)C)n(CCc2ccc(-c3n[nH]c(=O)o3)cc2)c1=O [Example 346]

>  <experimental_system>
rat EP4 receptor (Rattus norvegicus, UniProt P43114)

>  <measurement_unit>
nM

>  <observed>
2.8

$$$$
>  <compound>
O=C(O)c1ccc(CCn2c(CN3CCc4ccc(Cl)cc43)c(Cl)cc(Cl)c2=O)cc1 [Example 150]

>  <experimental_system>
rat EP4 receptor (Rattus norvegicus, UniProt P43114)

>  <measurement_unit>
nM

>  <observed>
15

$$$$
>  <compound>
CCC[C@H]1CCCN1Cc1c(Cl)cc(Cl)c(=O)n1CCc1ccc(-c2n[nH]c(=O)o2)cc1 [Example 208]

>  <experimental_system>
rat EP4 receptor (Rattus norvegicus, UniProt P43114)

>  <measurement_unit>
nM

>  <observed>
2.9

$$$$

Turning now to a further record.
What Ki appears in the records for this compound with rat EP4 receptor (Rattus norvegicus, UniProt P43114)? COc1cc(OC)cc(N(C)Cc2c(Cl)cc(Cl)c(=O)n2CCc2ccc(C(=O)O)cc2)c1 [Example 125]
29
